# Tested on: Respiratory syncytial virus
# assay explanation: Antiviral activity against RSV B in Hep2 cells by plaque assay
# Assay type: functional, organism-based
# setup conditions: human respiratory syncytial virus, HEp-2
Please respond with reported pIC50 for every item in the list.
Answers are plain numbers, as −log10 of the molar value.

CC(=O)NC1N=C(c2ccccc2)c2ccccc2NC1=O (stereo not drawn) ... 5.44

Please find the next compound below.
// Input: O=C(Nc1ccccc1F)NC1N=C(c2ccccc2)c2ccccc2NC1=O (stereo not drawn) . Output its pIC50 only. 6.12

----------
# Test system: HEp-2
# assay explanation: Cytotoxicity against Hep2 cell at 50 uM
# Format: functional, cell-based
# setup conditions: Homo sapiens
recorded metric: Activity

For orientation, consider the following solved cases.
O=C(NC1N=C(c2ccccc2)c2ccccc2NC1=O)C1CCCCC1 (stereo unspecified) ... Not toxic
CCCOc1ccccc1C(=O)NC1N=C(c2ccccc2)c2ccccc2NC1=O (stereo unspecified) ... Not toxic
COc1ccccc1C(=O)NC1N=C(c2cccc(C(F)(F)F)c2)c2ccccc2NC1=O (stereo unspecified) ... Not toxic
COc1ccc(F)cc1C(=O)NC1N=C(c2ccccc2)c2ccccc2NC1=O (stereo unspecified) ... Not toxic
CCOc1ccccc1C(=O)NC1N=C(c2ccccc2)c2ccccc2NC1=O (stereo unspecified) ... Not toxic

# next molecule below
Supply recorded Activity for O=C(NC1N=C(c2ccccc2)c2ccccc2NC1=O)c1ccc([N+](=O)[O-])cc1 (stereo unspecified) here. Not toxic
